Answer each item with its documented Average Relative Light Unit Values.
Tested on: ATPase activity endogenous to L929 cell lysate
Test: Detergent inhibition of ATPase endogenous to L929 cell lysate (ATP remaining by luciferase luminescence, 22° C.)
Assay type: biochemical
Settings: 0.1% detergent, 169 min
Please respond with the number in rlu and leave the unit unwritten.

[ask] Read off the recorded Average Relative Light Unit Values for C[C@H](CCC(=O)[O-])[C@H]1CC[C@H]2[C@@H]3CC[C@@H]4C[C@H](O)CC[C@]4(C)[C@H]3C[C@H](O)[C@]12C.[Na+] [Deoxycholate, sodium deoxycholate]
[reply] 1627.81

[ask] Read off the recorded Average Relative Light Unit Values for CCCCCCCCCCCC[N+](C)(C)Cc1ccccc1.[Br-] [BDDABr, Benzyldimethyldodecylammonium bromide]
[reply] 3260.59

[ask] Read off the recorded Average Relative Light Unit Values for C[C@H](CCC(=O)NCCC[N+](C)(C)CC(O)CS(=O)(=O)[O-])[C@H]1CC[C@H]2[C@@H]3[C@H](O)C[C@@H]4C[C@H](O)CC[C@]4(C)[C@H]3C[C@H](O)[C@]12C (stereo partly drawn) [CHAPSO]
[reply] 1210.14
